Molecular target: acetylcholine receptor (rat cerebral membranes)
Conditions: 3H-QNB displacement
Listed molecules paired with reported pIC50
Scale explanation: pIC50 corresponds to minus log10 of a concentration expressed in moles per litre.

> print(dat)
                                   molecule  quantity.kind  endpoint.value
1  COc1cc2c(cn1)C1NCCC1CC2 (centres unmarked)          pIC50            5.22

Now, please, on to the next molecule.
Report pIC50, nothing else, for this molecule: COc1cc2c(cn1)C1C(CC2)CCN1C (centres unmarked)
5.05

====

Biological target: acetylcholine receptor (rat cerebral membranes) (Rattus norvegicus, UniProt P09483+P12390)
Construct: Synaptic membranes were prepared by homogenizing the cortical tissue; from tissue; host or cells: cerebral cortex synaptic membranes of male Sprague-Dawley rats
Sequence (P09483 31-630): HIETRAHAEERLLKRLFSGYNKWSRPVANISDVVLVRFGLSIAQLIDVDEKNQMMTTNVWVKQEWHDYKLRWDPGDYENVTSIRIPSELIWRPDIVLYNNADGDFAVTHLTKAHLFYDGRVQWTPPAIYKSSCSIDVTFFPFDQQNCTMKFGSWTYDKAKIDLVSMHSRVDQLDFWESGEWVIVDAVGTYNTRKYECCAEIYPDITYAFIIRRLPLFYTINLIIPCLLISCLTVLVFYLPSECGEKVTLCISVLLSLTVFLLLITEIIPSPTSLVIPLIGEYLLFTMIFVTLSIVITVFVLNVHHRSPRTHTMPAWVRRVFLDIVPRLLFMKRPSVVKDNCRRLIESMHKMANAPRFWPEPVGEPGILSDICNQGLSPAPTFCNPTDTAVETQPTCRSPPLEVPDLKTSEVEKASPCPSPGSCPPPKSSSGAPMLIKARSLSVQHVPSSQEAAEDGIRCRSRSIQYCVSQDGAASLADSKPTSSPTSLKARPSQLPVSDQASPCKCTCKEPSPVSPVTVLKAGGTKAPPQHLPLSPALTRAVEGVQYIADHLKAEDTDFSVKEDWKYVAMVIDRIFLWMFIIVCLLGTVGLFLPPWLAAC
Sequence (P12390 25-500): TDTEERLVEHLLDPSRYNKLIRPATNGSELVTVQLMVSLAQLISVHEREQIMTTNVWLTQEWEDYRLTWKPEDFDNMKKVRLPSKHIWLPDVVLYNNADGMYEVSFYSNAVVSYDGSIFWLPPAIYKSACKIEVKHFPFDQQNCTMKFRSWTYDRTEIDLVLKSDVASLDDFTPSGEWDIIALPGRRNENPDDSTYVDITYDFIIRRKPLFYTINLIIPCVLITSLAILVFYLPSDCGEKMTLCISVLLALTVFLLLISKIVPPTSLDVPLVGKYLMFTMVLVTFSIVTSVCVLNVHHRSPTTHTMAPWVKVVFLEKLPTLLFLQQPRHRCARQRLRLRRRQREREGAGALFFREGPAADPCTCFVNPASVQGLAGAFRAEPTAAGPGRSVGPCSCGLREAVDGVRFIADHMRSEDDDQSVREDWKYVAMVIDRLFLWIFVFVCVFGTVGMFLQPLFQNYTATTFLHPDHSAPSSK
Experiment: 3H-cyt (cytisine) displacement from rat cerebral membranes
Format: binding
Details: 3H-cyt displacement
Recorded IC50 values for a group of compounds are listed next.
Answer with the number, then the unit.

Quick one: give measured IC50 for COc1cc2c(cn1)C1NCCC1CC2 (stereo not drawn)
5.4 µM

For c1cc2c(cn1)C1NCCC1CO2 (stereo not drawn) , write its IC50.
2 µM

Return IC50 for the following compound: COc1cc2c(cn1)C1C(CC2)CCN1C (stereo not drawn)
27.5 µM
